- Tested on: Proto-oncogene tyrosine-protein kinase receptor Ret (Homo sapiens), P07949 [Y791F]
- Sequence (P07949 whole entry Y791F): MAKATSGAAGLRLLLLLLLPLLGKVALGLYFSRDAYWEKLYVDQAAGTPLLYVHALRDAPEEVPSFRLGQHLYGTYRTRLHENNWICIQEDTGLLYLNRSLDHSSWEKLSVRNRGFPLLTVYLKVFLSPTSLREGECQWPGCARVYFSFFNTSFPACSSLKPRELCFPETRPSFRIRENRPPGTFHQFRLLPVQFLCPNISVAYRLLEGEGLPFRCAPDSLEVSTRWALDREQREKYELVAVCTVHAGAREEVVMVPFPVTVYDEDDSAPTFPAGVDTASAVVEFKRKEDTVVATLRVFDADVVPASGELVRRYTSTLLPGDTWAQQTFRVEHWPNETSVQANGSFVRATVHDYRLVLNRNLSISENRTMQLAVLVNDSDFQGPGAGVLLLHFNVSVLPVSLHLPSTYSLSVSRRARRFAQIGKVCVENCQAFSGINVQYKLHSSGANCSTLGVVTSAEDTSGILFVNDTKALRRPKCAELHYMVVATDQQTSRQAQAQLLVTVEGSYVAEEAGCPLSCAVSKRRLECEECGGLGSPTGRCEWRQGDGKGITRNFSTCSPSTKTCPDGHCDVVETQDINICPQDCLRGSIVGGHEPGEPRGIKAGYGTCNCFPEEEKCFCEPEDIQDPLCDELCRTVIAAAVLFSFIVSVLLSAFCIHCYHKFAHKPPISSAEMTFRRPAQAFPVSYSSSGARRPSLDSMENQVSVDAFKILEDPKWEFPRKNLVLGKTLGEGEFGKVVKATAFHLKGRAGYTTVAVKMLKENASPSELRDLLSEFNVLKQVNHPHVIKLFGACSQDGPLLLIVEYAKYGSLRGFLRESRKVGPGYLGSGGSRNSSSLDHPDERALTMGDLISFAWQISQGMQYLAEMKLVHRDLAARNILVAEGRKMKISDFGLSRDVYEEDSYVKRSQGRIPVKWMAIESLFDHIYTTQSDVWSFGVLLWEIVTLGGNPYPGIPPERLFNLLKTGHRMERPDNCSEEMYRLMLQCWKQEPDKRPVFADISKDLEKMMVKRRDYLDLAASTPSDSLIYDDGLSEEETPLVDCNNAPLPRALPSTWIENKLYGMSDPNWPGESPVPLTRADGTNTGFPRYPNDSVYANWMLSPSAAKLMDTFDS
- conditionInfo: at 1 µM
Use 70% as the dividing line for inhibition, with the line itself on the condition met side and lower values as condition not met.

CCS(=O)(=O)c1ccc(OC)c(Nc2ncc(-c3cccc(OC)c3)o2)c1 : condition not met
COc1cc2ncnc(Nc3ccc(C)c(O)c3)c2cc1OC : condition met
O=S(=O)(CCOCc1ccc(-c2ccc3ncnc(Nc4ccc(OCc5cccc(F)c5)c(Cl)c4)c3c2)o1)c1ccccc1 : condition not met

stdin: Identify whether the reported inhibition of the following compound is 70% or greater: COC(=O)c1ccc2c(c1)C(=Cc1cc(Br)c(O)c(Br)c1)C(=O)N2
stdout: condition not met

stdin: Identify whether the reported inhibition of the following compound is 70% or greater: Cc1cc(Cl)cc2c1NC(=O)C2=NNc1ccc(S(N)(=O)=O)cc1
stdout: condition not met

###

- testedTarget: Protein-tyrosine kinase 6 (Homo sapiens) (UniProt Q13882)
- Sequence (Q13882 whole entry, looked up): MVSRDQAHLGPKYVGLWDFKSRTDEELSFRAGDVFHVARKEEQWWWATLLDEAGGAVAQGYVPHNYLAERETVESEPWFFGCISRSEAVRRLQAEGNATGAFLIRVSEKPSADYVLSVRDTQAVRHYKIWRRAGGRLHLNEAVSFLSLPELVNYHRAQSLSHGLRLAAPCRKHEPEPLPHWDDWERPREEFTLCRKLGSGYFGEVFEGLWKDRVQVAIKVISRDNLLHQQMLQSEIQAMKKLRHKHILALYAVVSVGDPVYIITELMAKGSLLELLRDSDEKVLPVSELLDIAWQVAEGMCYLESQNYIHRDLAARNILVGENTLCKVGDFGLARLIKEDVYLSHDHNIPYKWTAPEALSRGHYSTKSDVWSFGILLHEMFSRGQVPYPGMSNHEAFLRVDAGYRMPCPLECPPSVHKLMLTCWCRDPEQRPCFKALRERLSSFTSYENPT
- conditionInfo: at 0.1 µM
- Description: GSK_PKIS: BRK mean inhibition at 0.1 uM [Nanosyn]
outcomeMeasure: inhibition (%)
One number for each entry, in %.

NC(=O)c1sc(-n2cnc3ccccc32)cc1OCc1ccccc1Br : 1.74
c1ccc(Cc2nc3ccc(Nc4ncnc5ccccc45)cc3[nH]2)cc1 : 5.48
Cc1ccc(Nc2ccnc(Nc3cccc(C(N)=O)c3)n2)cc1O : 48.9
FC(F)(F)c1ccc(-c2nn3ncccc3c2-c2ccnc(Nc3ccc4c(c3)OCCO4)n2)cc1 : -0.58
COC(=O)c1ccc2c(c1)C(=Cc1cc(Br)c(O)c(Br)c1)C(=O)N2 : 2.4
COc1cccc(-n2nc(C)c3c(N/N=C(\C)c4ccncc4)ncnc32)c1 : -1.24
Cc1nc(-c2ccccc2)n2nc(NCCCN3CCOCC3)ncc12 : -2.39
COc1cccc(-n2ncc3c(N/N=C/c4ccc(C)cc4)ncnc32)c1 : 3.4
CN(C)CCCn1c(-c2nonc2N)nc2cnccc21 : 0.2
Cc1ccc(NC(=O)CC2CC2)cc1-c1ccc(C(=O)NCC2CC2)cc1 : 4.58

Okay, now this molecule:
Noted inhibition for Cc1ccc2c(-c3ccnc(Nc4ccc5c(c4)OCCO5)n3)c(-c3ccc(C(F)(F)F)cc3)nn2n1 , tested on Protein-tyrosine kinase 6 (Homo sapiens) (UniProt Q13882): 0.39

###

- testedTarget: Tyrosine-protein kinase receptor UFO (Homo sapiens)
- conditionInfo: at 1 µM
- Description: GSK_PKIS: AXL mean inhibition at 1 uM [Nanosyn]
What inhibition was measured for each of the following?
Give bare numbers, in %.

Some solved entries appear below for comparison.
c1ccc(Cc2nc3ccc(Nc4ncnc5ccccc45)cc3[nH]2)cc1 : -3.16
CS(=O)(=O)CCNCc1nc(-c2ccc3ncnc(Nc4ccc(OCc5cccc(C(F)(F)F)c5)cc4)c3c2)cs1 : -2.54
COC(=O)Nc1nc2cc(Oc3ccc(NC(=O)Nc4cccc(Br)c4)cc3)ccc2[nH]1 : 9.52
COc1cccc(-n2nc(C)c3c(N/N=C(\C)c4ccncc4)ncnc32)c1 : 0.56
Cc1ccc2c(c1)/C(=N/Nc1ccc(S(N)(=O)=O)cc1)C(=O)N2 : 2.86
[O-][S+]1CCN(Cc2ccc(-c3ccc4ncnc(Nc5ccc(OCc6ccccc6)c(Cl)c5)c4c3)o2)CC1 : 0.46
CCS(=O)(=O)c1ccc(OC)c(Nc2ncc(-c3cccc(OC)c3)o2)c1 : -1.98
NS(=O)(=O)c1cccc(-c2cc3ccncc3cc2OCc2ccccc2)c1 : -7.14
C[C@@H](Oc1cc(-n2cnc3ccc(OCC4CCN(C)CC4)cc32)sc1C(N)=O)c1ccccc1C(F)(F)F : 12.8
O=S(=O)(CCOCc1ccc(-c2ccc3ncnc(Nc4ccc(OCc5cccc(F)c5)c(Cl)c4)c3c2)o1)c1ccccc1 : 1.46

Batch request: inhibition for each of the following compounds.
1. COc1cc2ncn(-c3cc(OCc4ccccc4S(C)(=O)=O)c(C#N)s3)c2cc1OC
2. Cc1ccc(C(=O)NC2CC2)cc1-c1ccc2[nH]ncc2c1

stdout:
43.5
6.55

Batch request: inhibition for each of the following compounds.
1. CN(C)C(=O)O[C@@H]1CN[C@@H](C#Cc2cc3ncnc(Nc4ccc(OCc5cccc(F)c5)c(Cl)c4)c3s2)C1
2. CS(=O)(=O)Nc1cccc(-c2ccc3c(NC(=O)C4CC4)n[nH]c3c2)c1
3. COc1ccc(-c2nn3ncccc3c2-c2ccnc(Nc3cccc(C(F)(F)F)c3)n2)cc1
4. CC(C)c1ccc(Nc2nccc(-c3cnn4ncccc34)n2)cc1
5. Nc1ccc(C#Cc2cncnc2Nc2ccc(OCc3cccc(F)c3)c(Cl)c2)cc1

stdout:
1. 2.48
2. 1.68
3. -2.69
4. 0.39
5. -3.04

Batch request: inhibition for each of the following compounds.
1. Cc1cc(O)cc(C)c1/C=C/c1cncc(C(=O)N(C)C)c1
2. NC(=O)c1cccc(Nc2nccc(Nc3cccc(F)c3)n2)c1
3. Cc1ccc2c(-c3ccnc(Nc4ccc5c(c4)OCCO5)n3)c(-c3ccc(C(F)(F)F)cc3)nn2n1

stdout:
[3.27, -2.93, 1.14]

###

What inhibition was measured for each of the following?
- Test system: Tyrosine-protein kinase ABL1 (Homo sapiens), P00519 [H396P]
- conditionInfo: at 0.1 µM
Answers are plain numbers, in %.

CCn1c(-c2nonc2N)nc2c(C#CC(C)(C)O)nc(OCCNC)cc21 : 3.72
C[C@@H](Oc1cc(-n2cnc3ccc(OC[C@@H](O)CO)cc32)sc1C(N)=O)c1ccccc1Cl : 0

Batch request: inhibition for each of the following molecules.
1. COC(=O)Nc1nc2cc(Oc3ccc(NC(=O)Nc4cccc(Br)c4)cc3)ccc2[nH]1
2. CCn1c(-c2nonc2N)nc2ccc(F)cc21
3. C[C@@H](Oc1cc(-n2cnc3ccc(OCC4CCN(C)CC4)cc32)sc1C(N)=O)c1ccccc1C(F)(F)F
4. COc1cc(/C=N/Nc2ncnc3c2cnn3C(C)C)ccc1O
5. O=C1Nc2ccccc2/C1=C/Nc1ccc2[nH]c(=O)[nH]c2c1
6. Cc1nc(-c2ccccc2)n2nc(NCCCN3CCOCC3)ncc12

stdout:
16.4
4.55
-1.32
34.7
7.55
2.5

Batch request: inhibition for each of the following molecules.
1. Oc1cccc(-c2nc(-c3ccccc3)[nH]c2-c2ccncc2)c1
2. Nc1nccc(C#Cc2cncnc2Nc2ccc(OCc3cccc(F)c3)c(Cl)c2)n1

stdout:
[9.87, 3.32]

###

- testedTarget: Ephrin type-B receptor 3 (Homo sapiens) (UniProt P54753);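 also: values are mean percent inhibition of EPHB3 from the GSK PKIS screening panel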
- Sequence (whole entry): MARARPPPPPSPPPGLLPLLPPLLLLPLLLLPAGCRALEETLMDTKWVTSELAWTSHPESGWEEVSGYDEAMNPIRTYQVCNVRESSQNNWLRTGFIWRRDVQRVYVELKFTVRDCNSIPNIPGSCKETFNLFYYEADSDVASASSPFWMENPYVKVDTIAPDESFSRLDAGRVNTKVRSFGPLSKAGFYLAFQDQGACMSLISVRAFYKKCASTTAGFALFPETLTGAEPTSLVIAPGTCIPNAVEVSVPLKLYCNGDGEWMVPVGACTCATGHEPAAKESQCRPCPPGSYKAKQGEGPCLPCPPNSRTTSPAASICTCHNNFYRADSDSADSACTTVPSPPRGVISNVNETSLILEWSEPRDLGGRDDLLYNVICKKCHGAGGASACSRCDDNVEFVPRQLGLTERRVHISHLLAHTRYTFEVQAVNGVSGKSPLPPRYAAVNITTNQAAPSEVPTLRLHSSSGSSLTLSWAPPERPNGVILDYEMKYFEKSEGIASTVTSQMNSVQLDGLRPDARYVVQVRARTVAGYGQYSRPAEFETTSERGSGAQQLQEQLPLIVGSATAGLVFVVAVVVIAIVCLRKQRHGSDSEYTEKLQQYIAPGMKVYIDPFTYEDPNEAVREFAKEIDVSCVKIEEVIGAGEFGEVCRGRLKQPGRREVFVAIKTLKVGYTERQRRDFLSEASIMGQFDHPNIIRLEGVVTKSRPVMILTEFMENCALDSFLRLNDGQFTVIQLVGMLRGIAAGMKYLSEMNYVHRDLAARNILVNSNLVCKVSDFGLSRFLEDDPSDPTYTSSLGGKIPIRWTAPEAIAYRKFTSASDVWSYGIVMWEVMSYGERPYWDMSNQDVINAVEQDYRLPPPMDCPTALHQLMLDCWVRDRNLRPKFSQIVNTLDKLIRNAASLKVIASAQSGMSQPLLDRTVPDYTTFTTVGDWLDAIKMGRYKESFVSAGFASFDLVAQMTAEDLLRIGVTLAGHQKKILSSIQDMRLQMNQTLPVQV
- conditionInfo: at 1 µM
What inhibition was measured for each of the following?
Numbers only, in %.

O=C1Nc2ccccc2/C1=C/Nc1ccc2[nH]c(=O)[nH]c2c1 : 5.55
Nc1ccc(C#Cc2cncnc2Nc2ccc(OCc3cccc(F)c3)c(Cl)c2)cc1 : 3.54
CS(=O)(=O)Nc1cccc(-c2ccc3c(NC(=O)C4CC4)n[nH]c3c2)c1 : -3.94

Batch request: inhibition for each of the following compounds.
1. N#Cc1c(NC(=O)c2ccccc2F)sc2c1CCCC2
2. Cc1cc(Cl)cc2c1NC(=O)C2=NNc1ccc(S(N)(=O)=O)cc1
3. COC(=O)c1ccc2c(c1)C(=Cc1cc(Br)c(O)c(Br)c1)C(=O)N2
4. Cc1ccc(O)cc1Nc1ccnc2ccc(S(C)(=O)=O)cc12
5. c1ccc(Cc2nc3ccc(Nc4ncnc5ccccc45)cc3[nH]2)cc1

stdout:
1: 0.77; 2: 1.13; 3: 3.26; 4: 97.3; 5: 6.08

Batch request: inhibition for each of the following compounds.
1. CCS(=O)(=O)c1ccc(OC)c(Nc2nccc(N(C)c3ccc4c(C)n[nH]c4c3)n2)c1
2. NS(=O)(=O)c1ccc(N/N=C2\C(=O)Nc3ccc(Cl)cc32)cc1

stdout:
6.04
2.43

The measurements presented in this section are drawn from ChEMBL document CHEMBL1961873.
